Assay: Pharmacokinetics and tissue distribution after single intravenous administration
Assay type: in vivo, mouse
Particulars: ICR, mouse, iv; mice, single i.v. 10 mg/kg; Kidney
Reported metric: C0 (ng/mL)

[[record]]
compound = "O=C(CCc1ccc(C(F)(F)F)cc1)O[C@@H]1C(=O)NCCc2c([nH]c3ccccc23)[C@H]1c1ccc(C(F)(F)F)cc1 [(+)3C-20]"
readout_value = 1960


###

Assay: Pharmacokinetics and tissue distribution after single intravenous administration
Type: in vivo, mouse
Particulars: ICR, mouse, iv; mice, single i.v. 10 mg/kg; Brain; read-out: Tissues/plasma ratio
Reported metric: Kp

[[record]]
compound = "O=C(CCc1ccc(C(F)(F)F)cc1)O[C@@H]1C(=O)NCCc2c([nH]c3ccccc23)[C@H]1c1ccc(C(F)(F)F)cc1 [(+)3C-20]"
reported_metric = "Kp"
readout_value = 0.699

